- testProtocol: Phase I dose-escalating study, plasma pharmacokinetics in patients with solid tumor
- Format: in vivo, human
- testConditions: human, plasma, 25 mg, 25 mg QD 4/1 (n = 6), nominal time 20 h; read-out: Mean plasma concentration following the last dose on cycle 1 day 28
quantityKind: concentration at 20 h (ng/mL)
Write it as a number; the unit ng/mL goes unstated.

Entry under review: Cc1[nH]c(/C=C2\C(=O)Nc3ccc(F)cc32)c(C)c1C(=O)NC[C@H](O)CN1CCOCC1 . Reported concentration at 20 h?
19.5

* * *

- testProtocol: Phase I dose-escalating study, plasma pharmacokinetics in patients with solid tumor
- Format: in vivo, human
- testConditions: human, plasma, 50 mg, 50 mg QD 4/1 (n = 5), nominal time 0 h; read-out: Mean plasma concentration following the last dose on cycle 1 day 28
quantityKind: concentration at 0 h (ng/mL)
Write it as a number; the unit ng/mL goes unstated.

Entry under review: Cc1[nH]c(/C=C2\C(=O)Nc3ccc(F)cc32)c(C)c1C(=O)NC[C@H](O)CN1CCOCC1 . Reported concentration at 0 h?
37.2

* * *

- testProtocol: Phase I dose-escalating study, plasma pharmacokinetics in patients with solid tumor
- Type: in vivo, human
- testConditions: human, plasma, 200 mg, 200 mg QD (4/1), C2D28 (n = 5), plasma; read-out: tmax, mean (% CV)
quantityKind: Tmax (h)
Write it as a number; the unit h goes unstated.

Entry under review: Cc1[nH]c(/C=C2\C(=O)Nc3ccc(F)cc32)c(C)c1C(=O)NC[C@H](O)CN1CCOCC1 [compound 1] . Reported Tmax?
5.6

* * *

- testProtocol: Phase I dose-escalating study, plasma pharmacokinetics in patients with solid tumor
- Assay type: in vivo, human
- testConditions: human, plasma, 200 mg QD, 200 mg QD 4/1 (n = 5), nominal time 10 h; read-out: Mean plasma concentration following the last dose on cycle 1 day 28
quantityKind: concentration at 10 h (ng/mL)
Write it as a number; the unit ng/mL goes unstated.

Entry under review: Cc1[nH]c(/C=C2\C(=O)Nc3ccc(F)cc32)c(C)c1C(=O)NC[C@H](O)CN1CCOCC1 . Reported concentration at 10 h?
361

* * *

- testProtocol: Phase I dose-escalating study, plasma pharmacokinetics in patients with solid tumor
- Assay type: in vivo, human
- testConditions: human, plasma, 50 mg, 50 mg QD (4/1), C2D28 (n = 3), plasma; read-out: tmax, mean (% CV)
quantityKind: Tmax (h)
Write it as a number; the unit h goes unstated.

Entry under review: Cc1[nH]c(/C=C2\C(=O)Nc3ccc(F)cc32)c(C)c1C(=O)NC[C@H](O)CN1CCOCC1 . Reported Tmax?
3.3

* * *

- testProtocol: Phase I dose-escalating study, plasma pharmacokinetics in patients with solid tumor
- Type: in vivo, human
- testConditions: human, plasma, 25 mg QD, 25 mg QD 4/1 (n = 6), nominal time 8 h; read-out: Mean plasma concentration following the last dose on cycle 1 day 28
quantityKind: concentration at 8 h (ng/mL)
Write it as a number; the unit ng/mL goes unstated.

Entry under review: Cc1[nH]c(/C=C2\C(=O)Nc3ccc(F)cc32)c(C)c1C(=O)NC[C@H](O)CN1CCOCC1 . Reported concentration at 8 h?
41.3

* * *

- testProtocol: Phase I dose-escalating study, plasma pharmacokinetics in patients with solid tumor
- Assay type: in vivo, human
- testConditions: human, plasma, 250 mg, 250 mg QD (4/1), C1D1 (n = 6), plasma; read-out: tmax, mean (% CV)
quantityKind: Tmax (h)
Write it as a number; the unit h goes unstated.

Entry under review: Cc1[nH]c(/C=C2\C(=O)Nc3ccc(F)cc32)c(C)c1C(=O)NC[C@H](O)CN1CCOCC1 . Reported Tmax?
3.7

* * *

- testProtocol: Phase I dose-escalating study, plasma pharmacokinetics in patients with solid tumor
- Type: in vivo, human
- testConditions: human, plasma, 100 mg, 100 mg QD (4/1), C2D28 (n = 4), plasma; read-out: Cmax, mean (% CV)
quantityKind: Cmax

Entry under review: Cc1[nH]c(/C=C2\C(=O)Nc3ccc(F)cc32)c(C)c1C(=O)NC[C@H](O)CN1CCOCC1 . Reported Cmax?
0.181 µg/mL

* * *

- testProtocol: Phase I dose-escalating study, plasma pharmacokinetics in patients with solid tumor
- Format: in vivo, human
- testConditions: human, plasma, 25 mg, 25 mg QD (4/1), C1D28 (n = 6), plasma; read-out: tmax, mean (% CV)
quantityKind: Tmax (h)
Write it as a number; the unit h goes unstated.

Entry under review: Cc1[nH]c(/C=C2\C(=O)Nc3ccc(F)cc32)c(C)c1C(=O)NC[C@H](O)CN1CCOCC1 . Reported Tmax?
2.7

* * *

- testProtocol: Phase I dose-escalating study, plasma pharmacokinetics in patients with solid tumor
- Type: in vivo, human
- testConditions: human, plasma, 200 mg, 200 mg QD 4/1 (n = 5), nominal time 144 h; read-out: Mean plasma concentration following the last dose on cycle 1 day 28
- Procedure: Cmax values, or maximum total plasma concentrations, of a compound of formula 1 can be measured according to techniques well known to those skilled in the art. For example, after a compound of formula 1 has been administered to a mammal, blood samples can be taken at fixed time points over a period of time (e.g. 24 hours) and the serum or plasma concentration of compound of formula 1 can be measured using standard analytical techniques known in the art. […]
quantityKind: concentration at 144 h (ng/mL)
Write it as a number; the unit ng/mL goes unstated.

Entry under review: Cc1[nH]c(/C=C2\C(=O)Nc3ccc(F)cc32)c(C)c1C(=O)NC[C@H](O)CN1CCOCC1 . Reported concentration at 144 h?
4.77

* * *

- testProtocol: Phase I dose-escalating study, plasma pharmacokinetics in patients with solid tumor
- Assay type: in vivo, human
- testConditions: human, plasma, 25 mg QD, 25 mg QD 4/1 (n = 6), nominal time 6 h; read-out: Mean plasma concentration following the last dose on cycle 1 day 28
quantityKind: concentration at 6 h (ng/mL)
Write it as a number; the unit ng/mL goes unstated.

Entry under review: Cc1[nH]c(/C=C2\C(=O)Nc3ccc(F)cc32)c(C)c1C(=O)NC[C@H](O)CN1CCOCC1 . Reported concentration at 6 h?
50.3

* * *

- testProtocol: Phase I dose-escalating study, plasma pharmacokinetics in patients with solid tumor
- Format: in vivo, human
- testConditions: human, plasma, 200 mg, 200 mg QD (4/1), C2D28 (n = 5), plasma; read-out: AUC(0-24), mean (% CV)
quantityKind: AUC(0-t) (ng·h/mL)
Write it as a number; the unit ng·h/mL goes unstated.

Entry under review: Cc1[nH]c(/C=C2\C(=O)Nc3ccc(F)cc32)c(C)c1C(=O)NC[C@H](O)CN1CCOCC1 [compound 1] . Reported AUC(0-t)?
6270

* * *

- testProtocol: Phase I dose-escalating study, plasma pharmacokinetics in patients with solid tumor
- Format: in vivo, human
- testConditions: human, plasma, 100 mg, 100 mg QD (4/1), C1D28 (n = 6), plasma; read-out: t½, mean (% CV) (converted)
quantityKind: half-life (min)
Write it as a number; the unit min goes unstated.

Entry under review: Cc1[nH]c(/C=C2\C(=O)Nc3ccc(F)cc32)c(C)c1C(=O)NC[C@H](O)CN1CCOCC1 . Reported half-life?
1320

* * *

- testProtocol: Phase I dose-escalating study, plasma pharmacokinetics in patients with solid tumor
- Format: in vivo, human
- testConditions: human, plasma, 100 mg, 100 mg QD (continuous), C2D28 (n = 4), plasma; read-out: C(trough, 24 h), mean (% CV)
quantityKind: concentration at 24 h (ng/mL)
Write it as a number; the unit ng/mL goes unstated.

Entry under review: Cc1[nH]c(/C=C2\C(=O)Nc3ccc(F)cc32)c(C)c1C(=O)NC[C@H](O)CN1CCOCC1 . Reported concentration at 24 h?
62.8

* * *

- testProtocol: Phase I dose-escalating study, plasma pharmacokinetics in patients with solid tumor
- Assay type: in vivo, human
- testConditions: human, plasma, 200 mg, 200 mg QD (4/1), C1D1 (n = 6), plasma; read-out: t½, mean (% CV) (converted)
quantityKind: half-life (h)
Write it as a number; the unit h goes unstated.

Entry under review: Cc1[nH]c(/C=C2\C(=O)Nc3ccc(F)cc32)c(C)c1C(=O)NC[C@H](O)CN1CCOCC1 [compound 1] . Reported half-life?
18.8

* * *

- testProtocol: Phase I dose-escalating study, plasma pharmacokinetics in patients with solid tumor
- Type: in vivo, human
- testConditions: human, plasma, 150 mg, 150 mg QD 4/1 (n = 5), nominal time 144 h; read-out: Mean plasma concentration following the last dose on cycle 1 day 28
quantityKind: concentration at 144 h (ng/mL)
Write it as a number; the unit ng/mL goes unstated.

Entry under review: Cc1[nH]c(/C=C2\C(=O)Nc3ccc(F)cc32)c(C)c1C(=O)NC[C@H](O)CN1CCOCC1 . Reported concentration at 144 h?
1.52
